Assay: Cytotoxicity against human L132 cells by MTT assay
Type: toxicity, cell-based
reported property: IC50 (µM)
Report the value in µM with no unit label.

May I ask what IC50 has been recorded for O=[N+]([O-])c1cccc(-c2nc3sccn3c2-c2ccnc(NCCCNS(=O)(=O)c3cccc(F)c3)n2)c1 ? 80

IC50 lookup needed for O=[N+]([O-])c1cccc(-c2nc3sccn3c2-c2ccnc(NCCCNS(=O)(=O)c3ccc(F)cc3)n2)c1 , thanks. 76

====

System: MCF7
Assay: Antiproliferative activity human MCF7 cells
Format: functional, cell-based
reported property: IC50 (µM)
// units = µM; emit number, no label

I'd like to know its IC50. The compound in question is O=C(/C=C\Nc1cnc2ccccc2c1)c1c(-c2ccccc2)nc2sccn12 4.6

What value of IC50 has been recorded for this entry: COC(=O)Nc1nc2cc(C(=O)c3cccs3)ccc2[nH]1 2.37

====

Tested on: A549
Assay: Antiproliferative activity human A549 cells
Assay type: functional, cell-based
reported property: IC50 (nM)
Answer in nM, number only, no unit symbol.

# IC50 lookup, item COC(=O)Nc1nc2cc(C(=O)c3cccs3)ccc2[nH]1 [NOCODAZOLE] 1140

Would you mind telling me what IC50 value was observed for O=C(/C=C\Nc1cnc2ccccc2c1)c1c(-c2ccccc2)nc2sccn12 ? 400

====

Assay: Inhibition of BRAF V600E mutant in MEF cells incubated for 90 mins
Assay type: cell-based, Mus musculus
reported property: IC50 (nM)
Quick note: give the figure in nM, leave out the unit.

Reported IC50, compound O=C(NCCNc1nccc(-c2c(-c3cccc(O)c3)nc3sccn23)n1)c1ccccc1 : ____ 190

====

Biological target: Serine/threonine-protein kinase B-raf (Homo sapiens, UniProt P15056, V600E)
Sequence (P15056 2-766 V600E limits assumed): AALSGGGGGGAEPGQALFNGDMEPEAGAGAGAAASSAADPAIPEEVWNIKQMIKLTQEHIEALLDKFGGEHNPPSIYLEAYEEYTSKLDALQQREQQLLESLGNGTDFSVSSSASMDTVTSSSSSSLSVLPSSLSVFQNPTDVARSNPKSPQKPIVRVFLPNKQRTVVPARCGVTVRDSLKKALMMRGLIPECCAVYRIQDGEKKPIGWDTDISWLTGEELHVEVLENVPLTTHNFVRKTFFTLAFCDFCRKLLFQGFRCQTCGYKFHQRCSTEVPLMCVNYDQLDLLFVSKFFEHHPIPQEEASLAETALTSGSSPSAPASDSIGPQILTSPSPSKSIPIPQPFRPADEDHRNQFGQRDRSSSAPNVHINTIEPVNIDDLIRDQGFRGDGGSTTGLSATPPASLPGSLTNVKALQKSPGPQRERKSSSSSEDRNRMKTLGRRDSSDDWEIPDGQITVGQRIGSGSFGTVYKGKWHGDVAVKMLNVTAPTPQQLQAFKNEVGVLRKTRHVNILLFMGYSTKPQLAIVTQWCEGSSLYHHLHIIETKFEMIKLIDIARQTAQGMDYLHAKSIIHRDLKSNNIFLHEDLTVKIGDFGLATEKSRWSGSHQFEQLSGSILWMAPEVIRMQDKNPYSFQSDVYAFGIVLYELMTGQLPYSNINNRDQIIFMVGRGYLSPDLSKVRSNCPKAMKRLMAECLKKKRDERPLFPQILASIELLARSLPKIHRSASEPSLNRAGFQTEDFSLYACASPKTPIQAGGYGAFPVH
Test: Inhibition of human BRAF V600E mutant using MEK1 as substrate in presence of ATP
reported property: pIC50
# log scale: pIC50 equals minus log10 of the concentration in mol/L

Look up pIC50 for this compound: O=[N+]([O-])c1cccc(-c2nc3sccn3c2-c2ccnc(NCCCNS(=O)(=O)c3cccc(F)c3)n2)c1 7.68

So what does the record say about pIC50 for O=[N+]([O-])c1cccc(-c2nc3sccn3c2-c2ccnc(NCCCNS(=O)(=O)c3ccc(F)cc3)n2)c1 ? 7.46
